# Tested on: Sprague-Dawley rats
# Assay type: in vivo
# Test conditions: tail vein

Compound	System name	Minimal lethal dose
COC(OC)(OC)C(=O)c1c(F)cnn1[C@H](C)c1ccccc1 [Compound D29]	Sprague-Dawley rats	>3.6 mg/kg
COC(=O)C(=O)c1ccnn1[C@H](C)c1ccccc1 [Compound D11]	Sprague-Dawley rats	>30.2 mg/kg
C=CCOCC(OC)(OC)C(=O)c1cncn1[C@H](C)c1ccccc1 [Compound D75]	Sprague-Dawley rats	>11.2 mg/kg

----------
# Test system: Sprague-Dawley rats
# Protocol notes: Pharmacological effect and adverse reactions under the equivalent dose (2ED50), Group C compounds
# Type: in vivo
# Test conditions: equivalent dose (2ED50), number of rats of n = 8
Parameter Adverse reaction: Tongue stretching: see the listing below.
Reported endpoint: Adverse reaction: Tongue stretching

Molecule	Meas value
CC#CCOCC(=O)c1ccnn1[C@H](C)c1ccccc1	1
C#CCOCC(=O)c1cc(F)nn1[C@H](C)c1ccccc1	0
CC#CCOCC(=O)c1cc(F)nn1[C@H](C)c1ccccc1	0
CC#CCC(=O)c1cncn1[C@H](C)c1ccccc1	2
C/C=C\C(=O)c1cncn1[C@H](C)c1ccccc1	0
C[C@H](c1ccccc1)n1cncc1C(=O)COCC1CC1	1
COCC(=O)c1cncn1[C@H](C)c1ccccc1	0
C#CCOCC(=O)c1c(F)ncn1[C@H](C)c1ccccc1	0
CCSCC(=O)c1ccnn1[C@H](C)c1ccccc1	0
CCOC(=O)c1cncn1C(C)c1ccccc1 (stereo not shown) [Etomidate, reference compound]	4
CCOCC(=O)c1ccnn1[C@H](C)c1ccccc1	2
CC1OC1C(=O)c1cncn1[C@H](C)c1ccccc1 (stereo partly shown)	1
CC#CCOCC(=O)c1c(F)ncn1[C@H](C)c1ccccc1	0
CCOCC(=O)c1c(F)ncn1[C@H](C)c1ccccc1	0
COC(=O)C1(OC(=O)c2cncn2[C@H](C)c2ccccc2)CC1 [CPMM, cyclopropyl methoxycarbonyl metamidate, reference compound]	4
C[C@H](c1ccccc1)n1cncc1C(=O)COC1CCC1	0
CC(=O)COCC(=O)c1cc(F)nn1[C@H](C)c1ccccc1	1
C[C@H](c1ccccc1)n1cnc(F)c1C(=O)COCC1CCC1	0
C[C@H](c1ccccc1)n1cnc(F)c1C(=O)COCC1CC1	0

----------
# Tested on: Sprague-Dawley rats
# Protocol notes: animal or person
# Test conditions: rats

Smiles string	System name	Minimal lethal dose
C[C@H](c1ccccc1)n1nnc(Cl)c1C(=O)SC1CCC1	Sprague-Dawley rats	>16 mg/kg
C=C=CC1(OC(=O)c2cnnn2[C@H](C)c2ccccc2)CCCCC1	Sprague-Dawley rats	>6 mg/kg
C=CCOC(=O)c1cnnn1[C@H](C)c1ccccc1	Sprague-Dawley rats	>11 mg/kg
CCOC(=O)c1cnnn1[C@H](C)c1ccccc1	Sprague-Dawley rats	>8 mg/kg
C[C@H](c1ccccc1)n1nnc(Br)c1C(=O)OC1CCC1	Sprague-Dawley rats	>11 mg/kg

----------
Parameter Righting reflex duration: see the listing below.
# Tested on: Sprague-Dawley rats
# Protocol notes: Pharmacological characteristics at equivalent doses (2ED50), Group A compounds
# Type: in vivo
# Test conditions: 2ED50, tail vein
Reported endpoint: Righting reflex duration

Molecule	Reported endpoint	Meas value
C=CC1(OC(=O)c2c(F)cnn2[C@H](C)c2ccccc2)COC1 [Compound A87]	Righting reflex duration	2.21 ± 0.24 min
C=CC#CC(C)(C)OC(=O)c1ccnn1[C@H](C)c1ccccc1 [Compound A16]	Righting reflex duration	2.55 ± 1.54 min
CC#CCOC(=O)c1ccnn1[C@H](C)c1ccccc1 [Compound A23]	Righting reflex duration	2.28 ± 1.83 min
C[C@H](c1ccccc1)n1nccc1C(=O)OC1CSC1 [Compound A6]	Righting reflex duration	3.81 ± 2.17 min
CC(=O)C1(OC(=O)c2ccnn2[C@H](C)c2ccccc2)COC1 [Compound A8]	Righting reflex duration	2.70 ± 2.52 min
C=C=CC1(OC(=O)c2ccnn2[C@H](C)c2ccccc2)COC1 [Compound A24]	Righting reflex duration	1.47 ± 0.63 min
CCOC(=O)c1c(F)cnn1[C@H](C)c1ccccc1 [Compound A70]	Righting reflex duration	2.51 ± 1.03 min
CO[C@H]1C[C@@H](OC(=O)c2c(F)c(F)nn2[C@H](C)c2ccccc2)C1 [Compound A94]	Righting reflex duration	1.26 ± 0.40 min
CCOC(=O)c1ccnn1[C@H](C)c1ccccc1 [Compound A1]	Righting reflex duration	2.24 ± 1.29 min

Every entry's value here was drawn from patent US12570612B2.
